Where these numbers come from: the MegaScale stability set (Tsuboyama et al. 2023)

B1: 6NMW (parent)
chain: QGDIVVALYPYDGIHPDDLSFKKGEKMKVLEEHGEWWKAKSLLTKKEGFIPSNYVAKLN

variants of: B1; assay: folding stability dG (cDNA display proteolysis); higher = more stable; settings: PBS, room temperature
The entries below come with measured folding stability dG values attached.
Unit kJ/mol implied. Number only.

// worked examples, folding stability dG included
alteration	folding stability dG, kJ/mol
G2W	16.5
V6S	4.8
E25M	3.1

Ask: Quick one: folding stability dG for L58K ?
Reply: 6.88

Ask: Further, for E47S ?
Reply: 14.5

Ask: Consider next the variant P16K in the same way.
Reply: 14.2

Ask: Also need W36D , thanks.
Reply: 1.13

Ask: Then N59D ?
Reply: 16
